Would you kindly list inhibition for each of these compounds?
EXPERIMENTAL_TARGET: Testis-specific serine/threonine-protein kinase 1 (Homo sapiens) (UniProt Q9BXA7);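 further: reported value is the mean inhibition, from the GSK PKIS kinase screening panel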
Sequence (Q9BXA7 whole entry): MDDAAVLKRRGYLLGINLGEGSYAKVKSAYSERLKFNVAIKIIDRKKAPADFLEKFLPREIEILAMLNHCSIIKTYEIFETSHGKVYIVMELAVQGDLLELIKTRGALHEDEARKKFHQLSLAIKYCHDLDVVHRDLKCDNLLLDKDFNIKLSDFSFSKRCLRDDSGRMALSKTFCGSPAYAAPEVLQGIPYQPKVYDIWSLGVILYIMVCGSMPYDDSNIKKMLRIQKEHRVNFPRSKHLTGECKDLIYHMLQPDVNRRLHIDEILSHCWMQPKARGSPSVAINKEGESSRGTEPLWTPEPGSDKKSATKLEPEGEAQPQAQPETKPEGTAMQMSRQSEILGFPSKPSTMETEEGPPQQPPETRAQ
CONDITION_LABEL: at 1 µM
Answers are plain numbers, in %.

# annotated cases, reported inhibition shown
[
  {
    "MOLECULE": "COc1cc2ncn(-c3cc(OCc4ccccc4C(F)(F)F)c(C(C)=O)s3)c2cc1OC",
    "EXPERIMENTAL_TARGET": "Testis-specific serine/threonine-protein kinase 1 (Homo sapiens) (UniProt Q9BXA7)",
    "inhibition (%)": 3.05
  },
  {
    "MOLECULE": "COc1cc(N2CCN(C(C)C)CC2)ccc1Nc1nc(Nc2ccc(F)cc2C(=O)NC[C@@H](O)CO)c2cc[nH]c2n1",
    "EXPERIMENTAL_TARGET": "Testis-specific serine/threonine-protein kinase 1 (Homo sapiens) (UniProt Q9BXA7)",
    "inhibition (%)": 84.9
  },
  {
    "MOLECULE": "COC(=O)Nc1nc2ccc(Sc3ccc(NC(=O)Nc4cc(C(F)(F)F)ccc4F)cc3)cc2[nH]1",
    "EXPERIMENTAL_TARGET": "Testis-specific serine/threonine-protein kinase 1 (Homo sapiens) (UniProt Q9BXA7)",
    "inhibition (%)": -2.84
  }
]

Quick batch: inhibition for everything below.
1. CCc1nccc2c1nc(-c1nonc1N)n2CC
2. CN(C)CCOc1ccc(-c2cc(-c3ccc4c(c3)CCC4=NO)c(-c3ccncc3)o2)cc1

Result:
1: 0.27; 2: 0.17

====

EXPERIMENTAL_TARGET: Serine/threonine-protein kinase PAK 1 (Homo sapiens) (UniProt Q13153)
Sequence (Q13153 whole entry): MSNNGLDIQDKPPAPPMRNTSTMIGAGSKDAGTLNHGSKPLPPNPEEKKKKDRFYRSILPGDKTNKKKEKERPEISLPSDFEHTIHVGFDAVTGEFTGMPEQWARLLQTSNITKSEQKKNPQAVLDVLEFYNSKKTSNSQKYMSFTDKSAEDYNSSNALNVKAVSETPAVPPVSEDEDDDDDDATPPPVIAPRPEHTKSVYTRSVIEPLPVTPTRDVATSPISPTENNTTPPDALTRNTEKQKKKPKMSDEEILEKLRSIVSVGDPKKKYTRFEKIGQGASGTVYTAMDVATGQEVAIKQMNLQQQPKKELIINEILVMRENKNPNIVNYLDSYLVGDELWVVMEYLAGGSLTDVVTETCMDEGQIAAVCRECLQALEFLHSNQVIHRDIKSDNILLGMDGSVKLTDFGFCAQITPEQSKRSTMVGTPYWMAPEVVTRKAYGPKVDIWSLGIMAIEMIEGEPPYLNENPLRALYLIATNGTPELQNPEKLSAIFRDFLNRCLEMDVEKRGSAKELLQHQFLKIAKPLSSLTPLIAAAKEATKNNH
CONDITION_LABEL: at 1 µM
MEASUREMENT_NAME: inhibition (%)
Give bare numbers, in %.

Sample answers from the record:
[
  {
    "MOLECULE": "CN1CCN(CCCNc2nc3ccc(Oc4ccc(NC(=O)Nc5cc(C(F)(F)F)ccc5F)cc4)cc3[nH]2)CC1",
    "MEASURE_UNIT": "%",
    "inhibition": 2.58
  },
  {
    "MOLECULE": "NC(=O)c1ccc(Oc2nccc(-c3c(-c4ccc(F)cc4)ncn3C3CCNCC3)n2)cc1",
    "MEASURE_UNIT": "%",
    "inhibition": 11
  }
]

For each entry beneath this line, provide reported inhibition.
1. Fc1ccc(-c2ncn(CCCN3CCOCC3)c2-c2ccncc2)cc1
2. O=C1Nc2ccc(I)cc2C1=Cc1cc(Br)c(O)c(Br)c1
3. COc1cccc(-n2cnc3c(N/N=C/c4ccncc4)ncnc32)c1
4. CN(C)c1ccc2c(c1)/C(=C/Nc1ccc(S(N)(=O)=O)cc1)C(=O)N2
5. Fc1ccc(-c2ncn(C3CCNCC3)c2-c2ccnc(Oc3ccc(Oc4ccccc4)cc3)n2)cc1
6. COc1ccc2ncn(-c3cc(O[C@H](C)c4ccccc4Cl)c(C(N)=O)s3)c2c1
7. O=C(Nc1n[nH]c2nc(-c3ccc(O)cc3)c(Br)cc12)C1CC1

Result:
[3.02, 11.5, 1.58, 2.53, 8.97, 7.26, 8.21]

Request: inhibition, test system Serine/threonine-protein kinase PAK 1 (Homo sapiens) (UniProt Q13153), entry `COc1ccc2cc(-c3c(-c4ccncc4)nc(-c4ccc(S(C)(=O)=O)cc4C)n3C)ccc2c1`;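 further: reported values are mean percent inhibition of PAK1 activity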
Result: 10

====

Tested on: Platelet-derived growth factor receptor alpha (Homo sapiens), P16234 [V561D]
Sequence (P16234 whole entry V561D): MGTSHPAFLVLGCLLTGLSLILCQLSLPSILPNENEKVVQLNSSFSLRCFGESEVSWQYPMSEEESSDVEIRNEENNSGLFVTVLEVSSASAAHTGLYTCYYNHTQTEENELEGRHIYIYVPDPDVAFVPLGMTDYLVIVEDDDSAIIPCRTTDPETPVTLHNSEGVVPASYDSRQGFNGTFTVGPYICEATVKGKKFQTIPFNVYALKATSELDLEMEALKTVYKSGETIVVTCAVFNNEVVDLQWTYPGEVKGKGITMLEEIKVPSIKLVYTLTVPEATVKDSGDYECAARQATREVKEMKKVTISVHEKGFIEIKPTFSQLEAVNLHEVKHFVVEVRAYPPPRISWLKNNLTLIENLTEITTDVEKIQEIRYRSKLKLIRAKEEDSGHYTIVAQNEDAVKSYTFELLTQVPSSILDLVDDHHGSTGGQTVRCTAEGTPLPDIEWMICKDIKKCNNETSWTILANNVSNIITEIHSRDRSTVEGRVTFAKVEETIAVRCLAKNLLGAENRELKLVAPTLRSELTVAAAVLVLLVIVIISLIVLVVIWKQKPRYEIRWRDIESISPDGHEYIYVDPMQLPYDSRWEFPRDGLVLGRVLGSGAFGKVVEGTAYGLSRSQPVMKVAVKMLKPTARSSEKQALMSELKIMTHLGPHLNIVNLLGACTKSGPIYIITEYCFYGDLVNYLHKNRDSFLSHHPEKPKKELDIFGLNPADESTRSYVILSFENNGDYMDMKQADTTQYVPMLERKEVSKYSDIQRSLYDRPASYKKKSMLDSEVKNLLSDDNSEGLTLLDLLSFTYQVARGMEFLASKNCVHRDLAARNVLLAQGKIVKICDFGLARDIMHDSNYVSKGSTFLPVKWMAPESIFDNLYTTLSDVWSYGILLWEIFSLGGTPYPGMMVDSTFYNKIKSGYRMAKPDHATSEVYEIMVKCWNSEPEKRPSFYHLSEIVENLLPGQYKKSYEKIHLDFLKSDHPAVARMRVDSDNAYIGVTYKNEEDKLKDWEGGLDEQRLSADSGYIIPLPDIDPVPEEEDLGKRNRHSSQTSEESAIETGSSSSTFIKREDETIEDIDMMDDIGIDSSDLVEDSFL
CONDITION_LABEL: at 0.1 µM
MEASUREMENT_NAME: inhibition (%)
Numbers only, in %.

The following molecules each have a reported value; give each one's inhibition.
1. Fc1ccc(-c2ncn(CCCN3CCOCC3)c2-c2ccncc2)cc1
2. O=C1Nc2ccccc2/C1=C/Nc1ccc(-n2cncn2)cc1
3. Fc1ccc(-c2nc3n(c2-c2ccncc2)CCS3)cc1
4. CN(C)CCCNc1nccc(-c2c(-c3ccc(F)cc3)nn3cc(C(F)(F)F)ccc23)n1
5. Fc1ccc(-c2ncn(C3CCNCC3)c2-c2ccnc(Oc3ccc(F)c(F)c3)n2)cc1
6. CN1CCN(CCCNc2nc3ccc(Oc4ccc(NC(=O)Nc5cc(C(F)(F)F)ccc5F)cc4)cc3[nH]2)CC1
7. NC(=O)Cc1ccccc1Oc1nccc(-c2c(-c3ccc(F)cc3)ncn2C2CCNCC2)n1
8. O=C1NC(=O)C(c2cccc(Cl)c2)=C1Nc1ccc(Cl)c(C(=O)O)c1

Result:
-0.24
10.8
-0.4
0.27
2.26
36
-0.19
2.77

State recorded inhibition for all listed molecules.
1. COc1cc2ncn(-c3cc(OCc4cccs4)c(C(N)=O)s3)c2cc1OC
2. NC(=O)c1cc(-c2ccncc2)cc(-c2ccccc2)c1N

Result:
[24.7, 5.79]

====

Please go through the items and note down their inhibition.
EXPERIMENTAL_TARGET: Rhodopsin kinase GRK7 (Homo sapiens) (UniProt Q8WTQ7);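 further: reported figures are mean percent inhibition of GRK7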
Sequence (Q8WTQ7 whole entry): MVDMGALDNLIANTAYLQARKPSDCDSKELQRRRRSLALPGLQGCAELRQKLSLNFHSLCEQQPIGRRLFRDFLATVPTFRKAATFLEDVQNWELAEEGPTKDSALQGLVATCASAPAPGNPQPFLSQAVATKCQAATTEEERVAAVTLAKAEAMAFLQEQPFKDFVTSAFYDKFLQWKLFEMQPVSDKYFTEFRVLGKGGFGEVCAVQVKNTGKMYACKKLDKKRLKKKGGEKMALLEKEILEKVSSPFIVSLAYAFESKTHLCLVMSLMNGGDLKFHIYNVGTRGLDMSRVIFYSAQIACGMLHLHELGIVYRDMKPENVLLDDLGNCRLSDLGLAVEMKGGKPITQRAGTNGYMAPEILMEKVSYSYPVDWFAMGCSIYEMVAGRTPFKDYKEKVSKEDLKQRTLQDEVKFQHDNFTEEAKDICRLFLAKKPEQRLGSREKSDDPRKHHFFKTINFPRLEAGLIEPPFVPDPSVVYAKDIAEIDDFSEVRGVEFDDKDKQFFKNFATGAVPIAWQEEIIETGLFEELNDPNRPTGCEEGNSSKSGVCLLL
CONDITION_LABEL: at 0.1 µM
Numbers only, in %.

Completed entries (count: 4):
[
  {
    "COMPOUND": "Clc1ccc(CNc2nccc(-c3cnn4ncccc34)n2)cc1",
    "EXPERIMENTAL_TARGET": "Rhodopsin kinase GRK7 (Homo sapiens) (UniProt Q8WTQ7)",
    "inhibition (%)": 1.36
  },
  {
    "COMPOUND": "CNC(=O)c1cncc(/C=C/c2c(C)cccc2C)c1",
    "EXPERIMENTAL_TARGET": "Rhodopsin kinase GRK7 (Homo sapiens) (UniProt Q8WTQ7)",
    "inhibition (%)": 1.47
  },
  {
    "COMPOUND": "Nc1nccc(-c2c(-c3ccc(F)cc3)ncn2C2CCC(O)CC2)n1 (stereo not given)",
    "EXPERIMENTAL_TARGET": "Rhodopsin kinase GRK7 (Homo sapiens) (UniProt Q8WTQ7)",
    "inhibition (%)": -3.24
  },
  {
    "COMPOUND": "COc1ccc2ncn(-c3cc(O[C@H](C)c4ccccc4Cl)c(C(N)=O)s3)c2c1",
    "EXPERIMENTAL_TARGET": "Rhodopsin kinase GRK7 (Homo sapiens) (UniProt Q8WTQ7)",
    "inhibition (%)": 8.25
  }
]

Please state inhibition for every compound in the list that follows.
1. CCS(=O)(=O)c1ccc(OC)c(Nc2ncc(-c3ccccc3Cl)o2)c1
2. NS(=O)(=O)c1ccc(N/N=C2\C(=O)Nc3ccc(-c4cnco4)cc32)cc1
3. CN1CCN(CCCNc2nc3ccc(Oc4ccc(NC(=O)Nc5cc(C(F)(F)F)ccc5F)cc4)cc3[nH]2)CC1
4. Cc1nnc(-c2ccc(C)c(-c3ccc(C(=O)NCc4ccc(Cl)cc4)cc3)c2)o1
5. Fc1ccc(-c2ncn(CCCN3CCOCC3)c2-c2ccncc2)cc1
6. NCc1ccc(-n2c(-c3nonc3N)nc3cnccc32)cc1

Result:
1. -1.21
2. 8.59
3. 1.12
4. 4.29
5. -1.98
6. 9.11

====

EXPERIMENTAL_TARGET: PAS domain-containing serine/threonine-protein kinase (Homo sapiens) (UniProt Q96RG2);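 further: reported value is the mean percent inhibition of PASK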
Sequence (Q96RG2 whole entry, the tested form may be a part): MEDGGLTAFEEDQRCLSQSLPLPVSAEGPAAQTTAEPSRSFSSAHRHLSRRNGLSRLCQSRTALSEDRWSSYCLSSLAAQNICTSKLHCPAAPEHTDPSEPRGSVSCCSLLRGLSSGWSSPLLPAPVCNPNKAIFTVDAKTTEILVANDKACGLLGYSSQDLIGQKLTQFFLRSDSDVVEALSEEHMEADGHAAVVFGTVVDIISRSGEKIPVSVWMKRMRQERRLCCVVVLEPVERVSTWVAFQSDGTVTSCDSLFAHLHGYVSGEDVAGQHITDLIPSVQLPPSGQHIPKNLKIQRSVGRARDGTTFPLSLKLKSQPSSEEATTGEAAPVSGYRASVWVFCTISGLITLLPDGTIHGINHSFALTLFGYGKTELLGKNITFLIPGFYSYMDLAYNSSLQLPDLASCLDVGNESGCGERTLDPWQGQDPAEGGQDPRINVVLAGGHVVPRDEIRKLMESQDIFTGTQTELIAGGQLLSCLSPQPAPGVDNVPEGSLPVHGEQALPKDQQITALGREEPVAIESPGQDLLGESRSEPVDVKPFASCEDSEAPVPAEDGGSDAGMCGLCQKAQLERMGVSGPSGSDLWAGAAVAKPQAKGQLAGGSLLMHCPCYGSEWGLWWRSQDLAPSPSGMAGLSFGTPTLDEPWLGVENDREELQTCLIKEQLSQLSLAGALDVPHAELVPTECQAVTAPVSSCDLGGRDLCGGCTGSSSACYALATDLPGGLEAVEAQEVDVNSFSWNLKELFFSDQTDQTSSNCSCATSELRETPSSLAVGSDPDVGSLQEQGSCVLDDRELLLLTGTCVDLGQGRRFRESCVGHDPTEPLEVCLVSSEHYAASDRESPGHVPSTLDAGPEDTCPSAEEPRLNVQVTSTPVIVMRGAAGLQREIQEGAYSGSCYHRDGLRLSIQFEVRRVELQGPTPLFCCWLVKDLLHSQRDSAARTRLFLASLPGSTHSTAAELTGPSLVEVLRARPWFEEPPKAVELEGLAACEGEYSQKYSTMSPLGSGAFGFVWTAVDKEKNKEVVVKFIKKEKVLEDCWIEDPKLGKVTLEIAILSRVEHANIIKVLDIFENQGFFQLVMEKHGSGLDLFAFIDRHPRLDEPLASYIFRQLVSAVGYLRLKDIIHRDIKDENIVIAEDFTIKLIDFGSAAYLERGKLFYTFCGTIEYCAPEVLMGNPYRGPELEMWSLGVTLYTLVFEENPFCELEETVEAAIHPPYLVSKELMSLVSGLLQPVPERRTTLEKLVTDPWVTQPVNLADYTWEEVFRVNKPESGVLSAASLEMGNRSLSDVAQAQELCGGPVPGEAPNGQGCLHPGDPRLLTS
CONDITION_LABEL: at 1 µM
Exercise: state measured inhibition for each of the compounds provided.
Numbers only, in %.

Below, 3 compounds whose answers are already recorded.
[
  {
    "COMPOUND": "CN(C)CCOc1ccc(-c2cc(-c3ccc4c(c3)CCC4=NO)c(-c3ccncc3)o2)cc1",
    "MEASURE_UNIT": "%",
    "inhibition": 1.21
  },
  {
    "COMPOUND": "Cc1nnc(-c2ccc(C)c(-c3ccc(C(=O)NCc4ccc(Cl)cc4)cc3)c2)o1",
    "MEASURE_UNIT": "%",
    "inhibition": 0.36
  },
  {
    "COMPOUND": "COc1ccc2cc(-c3c(-c4ccncc4)nc(-c4ccc([S+](C)[O-])cc4C)n3C)ccc2c1 (configuration not stated)",
    "MEASURE_UNIT": "%",
    "inhibition": -0.06
  }
]

For the 6 compounds below, give their inhibition values.
1. COc1cc(N2CCN(C(C)C)CC2)ccc1Nc1nc(Nc2ccc(F)cc2C(=O)NC[C@@H](O)CO)c2cc[nH]c2n1
2. c1ccc(Oc2ccc(Nc3ncc(-c4ccccc4)o3)cc2)cc1
3. COc1cccc(-n2cnc3c(N/N=C/c4ccncc4)ncnc32)c1
4. COc1cc(C)c(N(C)C(=O)CN(C)C)cc1Nc1nc(Nc2cccc(F)c2C(N)=O)c2cc[nH]c2n1
5. Fc1ccc(-c2ncn(CCCN3CCOCC3)c2-c2ccncc2)cc1
6. CCc1nccc2c1nc(-c1nonc1N)n2CC

Result:
1. 0.96
2. 0.08
3. 4.15
4. -1.13
5. 0.36
6. 0.86

For every item in the list below, what is its measured inhibition?
1. Fc1ccc(-c2nc3n(c2-c2ccncc2)CCS3)cc1
2. Cc1ccc(C(=O)NC2CCC2)cc1-c1ccc(C(=O)NCC2CC2)cc1
3. Fc1ccc(-c2ncn(C3CCNCC3)c2-c2ccnc(Oc3ccc4c(c3)OCO4)n2)cc1
4. O=C(Nc1n[nH]c2cc(-c3ccccc3)ccc12)C1CC1
5. O=C(Nc1n[nH]c2nc(-c3ccco3)ccc12)C1CC1

Result:
-1.64
-1.21
1.32
-1.15
-0.43

Items follow; give inhibition for each.
1. CCS(=O)(=O)c1ccc(OC)c(Nc2ncc(-c3cccc(-c4ccccc4F)c3)o2)c1
2. CN(C)c1ccc2c(c1)/C(=C/Nc1ccc(S(N)(=O)=O)cc1)C(=O)N2
3. Cc1ccc(NC(=O)c2ccoc2)cc1-c1ccc(C(=O)NCC2CC2)cc1
4. COc1cc(Nc2ncc3c(C)nc(-c4cccc(C(F)(F)F)c4)n3n2)cc(OC)c1OC
5. CCS(=O)(=O)c1ccc(OC)c(Nc2ncc(-c3ccccc3Cl)o2)c1
6. NS(=O)(=O)c1ccc(N/N=C2\C(=O)Nc3ccc(-c4cnco4)cc32)cc1
7. NS(=O)(=O)c1ccc(N/N=C2\C(=O)Nc3ccc(C(=O)NCCCn4ccnc4)cc32)cc1

Result:
-0.96
-0.69
0.47
0.78
0.93
4.38
2.55

// batch mode: one inhibition value per listed entry
1. CS(=O)(=O)CCNCc1ccc(-c2ccc3ncnc(Nc4ccc(OCc5ccccc5)c(Br)c4)c3c2)o1
2. N#Cc1ccc(Oc2nccc(-c3c(-c4ccc(F)cc4)ncn3C3CCNCC3)n2)cc1
3. CCc1ccc(Oc2nccc(-c3c(-c4ccc(F)cc4)ncn3C3CCNCC3)n2)cc1
4. NC(=O)c1ccc(Oc2nccc(-c3c(-c4ccc(F)cc4)ncn3C3CCNCC3)n2)cc1

Result:
1: 0.16; 2: -0.33; 3: 0.69; 4: -0.29

// each compound listed below needs its inhibition
1. COc1cc(Nc2ncc3c(C)nc(-c4cccc(Oc5ccccc5)c4)n3n2)cc(OC)c1OC
2. O=C(Nc1n[nH]c2cc(-c3cc(F)ccc3F)ccc12)C1CC1
3. COc1ccc2ncn(-c3cc(O[C@H](C)c4ccccc4Cl)c(C(N)=O)s3)c2c1
4. O=C1Nc2ccccc2/C1=C/Nc1ccc(-n2cncn2)cc1
5. CS(=O)(=O)CCNCc1cc(-c2cc3c(Nc4ccc(OCc5cccc(F)c5)c(Cl)c4)ncnc3s2)cs1
6. COc1cccc(/C=N/Nc2ncnc3c2cnn3-c2cccc(OC)c2)c1
7. C[C@@H](Oc1cc(-n2cnc3ccc(OC4CCN(C)CC4)cc32)sc1C(N)=O)c1ccccc1Cl
8. Clc1ccc(CNc2nccc(-c3cnn4ncccc34)n2)cc1

Result:
1: -0.72; 2: -2.73; 3: 0.54; 4: 1.73; 5: -1.38; 6: -1.16; 7: 0.38; 8: 1.97

Items follow; give inhibition for each.
1. CN(c1ccc(NC(=O)Nc2c(Cl)cccc2Cl)cc1)c1ccnc(Nc2cccc(CS(C)(=O)=O)c2)n1
2. COc1cc2ncn(-c3cc(OCCc4ccccc4)c(C(N)=O)s3)c2cc1OC
3. CNC(=O)c1cncc(/C=C/c2c(C)cccc2C)c1
4. CN1CCN(CCCNc2nc3ccc(Oc4ccc(NC(=O)Nc5cc(C(F)(F)F)ccc5F)cc4)cc3[nH]2)CC1

Result:
2.77
-0.56
0.92
-1.18
